Each recorded value in this set is attributed to ChEMBL document CHEMBL1156734.

assay_details: Fraction unbound in human plasma
Type: ADME, cell-free
property_measured: fraction unbound
A bare number is all that is needed in reply.

> print(dat)
                                     smiles  property.measured  numeric.result
1  O=C(COc1cccc(Cl)c1)NC1CCN(Cc2ccn(-c3ccc(C(F)(F)F)cc3)c2)CC1   fraction unbound           0.012

Now look at this one.
What fraction unbound value was documented for this compound, O=C(COc1cccc(Cl)c1)NC1CCN(Cc2ccn(-c3ccc(OC(F)(F)F)cc3)c2)CC1 ?
0.032

* * *

Examples of compounds with documented pIC50 follow.
target: UniProt:Q99705
assay_details: Displacement of [125I]MCH from human MCHR1 expressed in HEK293 cells
Assay type: cell-based
Scale: negative log10 of molar concentration, which is what pIC50 denotes.

For orientation, consider the following solved cases.
> print(dat)
                                     smiles  numeric.result
1  O=C(COc1cccc(Cl)c1)NC1CCN(Cc2csc(-c3ccc(Cl)cc3)n2)CC1            6.46
2  O=C(COc1cccc(Cl)c1)NC1CCN(Cc2ccn(-c3ccccc3)c2)CC1            6.15
3  O=C(COc1cccc(Cl)c1)NC1CCN(Cc2ccc3ccccc3c2)CC1            7.39

Entry under review: O=C(COc1cccc(Cl)c1)NC1CCN(Cc2ccc3c(c2)OCCO3)CC1 . Reported pIC50?
6.04

Need pIC50, item N#Cc1ccc(-n2ccc(CN3CCC(NC(=O)COc4cccc(Cl)c4)CC3)c2)cc1
7.28

* * *

target: Melanin-concentrating hormone receptor 1 (Homo sapiens, UniProt Q99705)
Sequence (Q99705 whole entry): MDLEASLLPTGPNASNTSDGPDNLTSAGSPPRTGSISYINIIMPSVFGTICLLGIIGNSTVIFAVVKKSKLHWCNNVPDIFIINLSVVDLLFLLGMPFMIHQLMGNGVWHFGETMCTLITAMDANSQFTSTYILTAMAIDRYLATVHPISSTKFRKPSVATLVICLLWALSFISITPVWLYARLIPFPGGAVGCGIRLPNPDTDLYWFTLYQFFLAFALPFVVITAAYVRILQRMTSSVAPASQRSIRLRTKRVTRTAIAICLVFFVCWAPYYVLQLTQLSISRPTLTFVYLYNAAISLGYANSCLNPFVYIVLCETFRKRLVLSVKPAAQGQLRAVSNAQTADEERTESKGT
assay_details: Displacement of [125I]MCH from human MCHR1 expressed in HEK293 cells
Type: cell-based
As shown below, each of these compounds has a reported pIC50 value.
Keep in mind that pIC50 stands for -log10 of concentration in molar terms.

Please review the entries below; each comes with its answer.
> print(dat)
                                     smiles                                    target  numeric.result
1  O=C(COc1cccc(Cl)c1)NCC1CCN(Cc2ccn(-c3ccc(C(F)(F)F)cn3)c2)CC1  Melanin-concentrating hormone receptor 1 (Homo sapiens, UniProt Q99705)            6.50
2  O=C(COc1cccc(Cl)c1)NC1CCN(Cc2cn(-c3ccc(C(F)(F)F)cc3)cn2)CC1  Melanin-concentrating hormone receptor 1 (Homo sapiens, UniProt Q99705)            5.67
3  CN(C(=O)COc1cccc(Cl)c1)C1CCN(Cc2ccn(-c3ccc(C(F)(F)F)cc3)c2)CC1  Melanin-concentrating hormone receptor 1 (Homo sapiens, UniProt Q99705)            6.96
4  O=C(COc1cccc(Cl)c1)N[C@H]1[C@@H]2CN(Cc3ccn(-c4ccc(C(F)(F)F)cc4)c3)C[C@@H]21  Melanin-concentrating hormone receptor 1 (Homo sapiens, UniProt Q99705)            6.95
5  Cc1cccc(OCC(=O)NCC2CN(Cc3ccn(-c4ccc(C(C)(C)C)cn4)c3)C2)c1  Melanin-concentrating hormone receptor 1 (Homo sapiens, UniProt Q99705)            6.77

Reported pIC50 for O=C(COc1cccc(Cl)c1)NC1CCN(Cc2cc3c(cc2Cl)OCO3)CC1 : what is it?
7.09

Can you share its pIC50? I mean this compound: O=C(COc1cccc(Cl)c1)NC1CCN(Cc2cccc(-n3cccc3)c2)CC1
6.53

Item COc1ccc(-n2ccc(CN3CCC(NC(=O)COc4cccc(Cl)c4)CC3)c2)cc1 has what recorded pIC50?
7.00

Name the recorded pIC50 for O=C(COc1ccc(F)c(F)c1)N[C@H]1CC[C@@H](Nc2ccn(-c3ccc(C(F)(F)F)cc3)c2)CC1 .
6.98
